IC50 values by entry
- Tested target: human P2Y12 receptor (Homo sapiens)
- Sequence (Q9H244 whole entry): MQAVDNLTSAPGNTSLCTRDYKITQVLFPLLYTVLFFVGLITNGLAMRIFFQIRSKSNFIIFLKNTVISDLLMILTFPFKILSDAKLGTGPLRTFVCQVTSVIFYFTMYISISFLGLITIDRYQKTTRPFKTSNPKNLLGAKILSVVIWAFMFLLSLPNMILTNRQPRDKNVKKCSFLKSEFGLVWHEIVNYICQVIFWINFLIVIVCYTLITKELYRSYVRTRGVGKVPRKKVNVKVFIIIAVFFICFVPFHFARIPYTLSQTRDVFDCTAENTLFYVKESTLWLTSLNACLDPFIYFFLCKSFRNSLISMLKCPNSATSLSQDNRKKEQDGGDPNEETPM
- Method: Inhibition study in human P2Y12 receptor transfected CHO cells (cAMP, LANCE Ultra cAMP Kit)
- Assay type: cell-based
- Protocol conditions: hP2Y12-CHO cells; 2-MeSADP as inducer; forskolin-induced cAMP; read-out: Inbibition of P2Y12 IC50

| Molecule | IC50 |
| --- | --- |
| CCCSc1nc(N[C@@H]2C[C@H]2c2ccc(F)c(F)c2)c2nnn([C@@H]3[C@H](F)[C@H](CO)O[C@H]3CO)c2n1 [Compound 39a] | 50 to 250 nM |
| CCCSc1nc(N[C@@H]2C[C@H]2c2ccc(F)c(F)c2)c2nnn([C@@H]3C[C@H](CO)O[C@H]3CO)c2n1 | < 50 nM |
| CCCSc1nc(N[C@@H]2C[C@H]2c2ccc(F)c(F)c2)c2nnn([C@@H]3[C@@H](F)[C@H](CO)O[C@H]3CO)c2n1 [Compound 39b] | 50 to 250 nM |
| CCCSc1nc(N[C@@H]2C[C@H]2c2ccc(F)c(F)c2)c2nnn([C@@H]3[C@@H](O)[C@H](CO)O[C@H]3CO)c2n1 | 250 to 1250 nM |
| CCC[S+]([O-])c1nc(N[C@@H]2C[C@H]2c2ccc(F)c(F)c2)c2nnn([C@@H]3C[C@H](C(=O)O)O[C@H]3CO)c2n1 (stereo partly shown) | 250 to 1250 nM |
| CCCSc1nc(N[C@@H]2C[C@H]2c2ccc(F)c(F)c2)c2nnn([C@@H]3C[C@H](CO)O[C@H]3COC)c2n1 | 250 to 1250 nM |
| CCCSc1nc(N[C@@H]2C[C@H]2c2ccc(F)c(F)c2)c2nnn([C@@H]3C[C@H](C(=O)O)O[C@H]3CO)c2n1 | < 50 nM |
| CCCSc1nc(N[C@@H]2C[C@H]2c2ccc(F)c(F)c2)c2nnn([C@H]3CO[C@@H](CO)C3)c2n1 | < 50 nM |
| CCCSc1nc(N[C@@H]2C[C@H]2c2ccc(F)c(F)c2)c2nnn([C@@H]3C[C@H](CCO)O[C@H]3CO)c2n1 | > 1250 nM |

// moving on: another record for IC50
Q: Param item = CCCSc1nc(N[C@@H]2C[C@H]2c2ccc(F)c(F)c2)c2nnn([C@H]3CO[C@@H](CO)[C@@H]3O)c2n1 ; retrieve measured IC50.
Result: < 50 nM
